Values were extracted from patent US20240067748A1.

Listing of entries alongside the reported ADCC (donor 2153#) Minimum cell killing %.
- STUDY SYSTEM: T1, human Trop2 on cells (human, UniProt P09758 27-323)
- T1 sequence (looked up): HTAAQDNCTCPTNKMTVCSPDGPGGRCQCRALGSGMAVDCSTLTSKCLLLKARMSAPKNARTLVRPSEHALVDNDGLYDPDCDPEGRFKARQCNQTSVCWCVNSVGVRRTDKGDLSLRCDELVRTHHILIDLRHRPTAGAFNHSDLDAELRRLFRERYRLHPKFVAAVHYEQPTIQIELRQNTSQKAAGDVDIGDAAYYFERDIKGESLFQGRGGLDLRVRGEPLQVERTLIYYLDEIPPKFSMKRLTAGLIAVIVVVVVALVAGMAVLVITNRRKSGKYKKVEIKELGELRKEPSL
- ASSAY: cell-based or functional assay
REPORTED PROPERTY: ADCC (donor 2153#) Minimum cell killing % (%)

binder="PR001142 (antibody, human IgG1, kappa, V domains shown, fully human IgG1/kappa; also called antibody No. (9)) VH: QVQLQESGPGLVKPSGTLSLTCAVSGDSISSNNWWSWVRQPPGKGLEWIGEIYPGGNPNYNPSLKSRVTISVDKSKNQFSLKLNSVTAADTAVYYCARGSGVISYFDYWGQGTLVTVSS VL: DIQMTQSPSTLSASVGDRVTITCRASQSIGHWLAWYQQKPGKAPKLLIYKASSLESGVPSRFRGSGSGTEFTLTISSLQPDDFATYYCQQYSSYSPITFGQGSRLEIKR" observed=9.28
binder="PR001165 (antibody, human IgG1, kappa, V domains shown, fully human IgG1/kappa; also called antibody No. (26)) VH: QVQLVESGGGVVQPGRSLRLSCEASGFTFSHYGMHWVRQAPGKGLEWVAVIWYDGIKTYYVESVKGRFTISRDNSKNTLNLQMNRLRAEDTAVYYCARDGGFGESNYYGLDVWGQGTTVTVSS VL: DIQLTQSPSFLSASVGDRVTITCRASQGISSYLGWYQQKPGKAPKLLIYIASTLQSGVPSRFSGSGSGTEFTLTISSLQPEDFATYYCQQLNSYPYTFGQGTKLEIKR" observed=14
binder="PR001166 (antibody, human IgG1, kappa, V domains shown, fully human IgG1/kappa; also called antibody No. (27)) VH: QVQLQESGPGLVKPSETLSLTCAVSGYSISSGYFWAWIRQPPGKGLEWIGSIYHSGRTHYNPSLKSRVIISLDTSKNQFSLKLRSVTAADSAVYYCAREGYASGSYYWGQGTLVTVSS VL: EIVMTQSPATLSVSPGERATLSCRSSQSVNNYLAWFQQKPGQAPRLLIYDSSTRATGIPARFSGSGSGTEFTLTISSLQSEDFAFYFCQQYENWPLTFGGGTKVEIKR" observed=11.9
binder="comparative example 2 antibody Tab (hRS7) (antibody, human IgG1, kappa, V domains shown, prepared on the basis of sacituzumab govitecan (ChemPartner, #T07-001); naked antibody) VH: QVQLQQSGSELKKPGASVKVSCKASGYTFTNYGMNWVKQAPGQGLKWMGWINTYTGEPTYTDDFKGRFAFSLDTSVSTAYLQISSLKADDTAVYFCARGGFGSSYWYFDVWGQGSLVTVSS VL: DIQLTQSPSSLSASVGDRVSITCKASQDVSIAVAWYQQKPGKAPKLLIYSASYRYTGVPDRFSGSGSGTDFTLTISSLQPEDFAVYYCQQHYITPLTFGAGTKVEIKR" observed=10.2
